Assay: Pharmacokinetic studies in human, Compound I in plasma by LC/MS/MS
Type: in vivo
Conditions: human, plasma, iv, 50 mg/m2, Group 1, 50 mg/m^2 IV, Day 1, mean, n = 4; read-out: T1/2 (converted)
Method: […] Levels of Compound I in patient's plasma were analyzed by liquid chromatography tandem mass spectrometry (LC/MS/MS) assay. […] The concentrations of Compound I in human plasma samples collected from subjects of as discussed above. Compound I concentrations in plasma samples were measured based on 9 levels of calibration standards from 5.00 to 5000 ng/mL, and 3 levels of QC at 15.0 ng/mL (low), 2500 ng/mL (mid), and 4000 ng/mL (high). […]
quantity-kind: half-life (h)
Output spec: scalar in h, unitless text.

Task item: Given Cc1cnc(CNC(=O)c2c(=O)c3ccc(N4CCCN(C)CC4)nc3n3c2sc2ccccc23)cn1 , state its recorded half-life.
Reply: 60.1

----------
Experiment: Pharmacokinetic studies in human, Compound I in plasma by LC/MS/MS
Format: in vivo
Conditions: human, plasma, iv, 325 mg/m2, Group 8, 325 mg/m^2 IV, Day 1, mean, n = 4
quantity-kind: Tmax (min)
Output spec: scalar in min, unitless text.

Task item: Given Cc1cnc(CNC(=O)c2c(=O)c3ccc(N4CCCN(C)CC4)nc3n3c2sc2ccccc23)cn1 [Compound I] , state its recorded Tmax.
Reply: 46

----------
Tested on: COLO-205
Assay: Alamar Blue cell viability assay, COLO-205
Format: cell-based
Settings: Homo sapiens; COLO-205, Colon
quantity-kind: EC50 (nM)
Output spec: scalar in nM, unitless text.

Task item: Given Cc1cnc(CNC(=O)c2c(=O)c3ccc(N4CCCN(C)CC4)nc3n3c2sc2ccccc23)cn1 , state its recorded EC50.
Reply: 96

----------
Assay: Pharmacokinetic studies in human, Compound I in plasma by LC/MS/MS
Format: in vivo
Settings: human, plasma, iv, 50 mg/m2, Group 1, 50 mg/m^2 IV, Day 1, mean, n = 4
quantity-kind: Cmax (ng/mL)
Output spec: scalar in ng/mL, unitless text.

Task item: Given Cc1cnc(CNC(=O)c2c(=O)c3ccc(N4CCCN(C)CC4)nc3n3c2sc2ccccc23)cn1 [Compound I] , state its recorded Cmax.
Reply: 728

----------
Test: Pharmacokinetic studies in human, Compound I in plasma by LC/MS/MS
Type: in vivo
Conditions: human, plasma, iv, 650 mg/m2, Group 10, 650 mg/m^2 IV, Day 1, mean, n = 5
quantity-kind: Cmax (ng/mL)
Output spec: scalar in ng/mL, unitless text.

Task item: Given Cc1cnc(CNC(=O)c2c(=O)c3ccc(N4CCCN(C)CC4)nc3n3c2sc2ccccc23)cn1 , state its recorded Cmax.
Reply: 3080

----------
Test: Pharmacokinetic studies in human, Compound I in plasma by LC/MS/MS
Type: in vivo
Details: human, plasma, iv, 325 mg/m2, Group 6, 325 mg/m^2 IV, Day 8, mean, n = 3; read-out: AUC∞
Description: […] Levels of Compound I in patient's plasma were analyzed by liquid chromatography tandem mass spectrometry (LC/MS/MS) assay. […] The concentrations of Compound I in human plasma samples collected from subjects of as discussed above. Compound I concentrations in plasma samples were measured based on 9 levels of calibration standards from 5.00 to 5000 ng/mL, and 3 levels of QC at 15.0 ng/mL (low), 2500 ng/mL (mid), and 4000 ng/mL (high). […]
quantity-kind: AUC(0-inf) (ng·h/mL)
Output spec: scalar in ng·h/mL, unitless text.

Task item: Given Cc1cnc(CNC(=O)c2c(=O)c3ccc(N4CCCN(C)CC4)nc3n3c2sc2ccccc23)cn1 , state its recorded AUC(0-inf).
Reply: 29000
